Read-out: Matrix Metallopeptidase 1 (MMP1), MMP1 (gene 4312)
Protocol description: BSK_BE3C_MMP1: BioMAP Diversity Plus: BE3C Assay for Matrix Metallopeptidase 1 (MMP1) Biomarker Activity (AID 2283024)
Stated conditions: primary human bronchial epithelial cells; actives raise or lower the signal
The source made the active and inactive calls. How the source made its calls: active means hit-call score of the fitted dose curve at least 0.9, where 1 is the maximum; inactive means score below 0.9.
Choose the fitting class; nothing outside true (1) (active), false (0) (inactive) is accepted.

(Q) Please indicate how the test categorized `CC1=CC(=O)/C(=C(/C)O)C(=O)O1` .
(A) false (0)

(Q) Please indicate how the test categorized `Cc1cc(F)ccc1-c1cc(N2CC[C@@H](O)[C@H]2CO)ncc1N(C)C(=O)C(C)(C)c1cc(C(F)(F)F)cc(C(F)(F)F)c1` .
(A) true (1)

(Q) Please indicate how the test categorized `CCCCCCCCOc1ccc(C(=O)c2ccccc2)c(O)c1` .
(A) false (0)

###

Read-out: Pselectin, SELP (gene 6403)
Protocol description: BSK_4H_Pselectin: BioMAP Diversity Plus: 4H Assay for Pselectin Biomarker Activity (AID 2283026)
Stated conditions: primary human endothelial cells (HUVEC); actives raise or lower the signal
Activity calls are given as the source filed them. How the source made its calls: active means hit-call score of the fitted dose curve at least 0.9, where 1 is the maximum; inactive means score below 0.9.
Choose the fitting class; nothing outside active, inactive is accepted.

// below: answered molecules
(Q) Please indicate how the test categorized `O=C1c2ccccc2C(=O)N1CCc1noc(-c2ccc(CN3CCCCCC3)s2)n1` .
(A) active

(Q) Please indicate how the test categorized `NC(=O)c1nc(-c2cccc(-c3cc(F)ccc3OCC(F)(F)C(F)(F)F)c2)n[nH]1` .
(A) active

(Q) Please indicate how the test categorized `O=CCCCC=O` .
(A) active

(Q) Please indicate how the test categorized `CCCCCCCCOc1ccc(C(=O)c2ccccc2)c(O)c1` .
(A) inactive

(Q) Please indicate how the test categorized `Clc1cc(Cl)c2c(c1)N=C1CCCCCN1C2` .
(A) inactive

Continuing:
(Q) Please indicate how the test categorized CN1C(=O)N(c2ccccc2Br)Cc2cnc(Nc3ccc4c(c3)OCC(CO)O4)nc21 (stereo unspecified) .
(A) active

(Q) Please indicate how the test categorized `CC(C)(C)c1cc(/C=C2\SC(N)=NC2=O)cc(C(C)(C)C)c1O` .
(A) active

(Q) Please indicate how the test categorized `O=c1[nH]sc2ccccc12` .
(A) active

(Q) Please indicate how the test categorized `O=C1CCC(C2CCCCC2)CC1` .
(A) inactive

(Q) Please indicate how the test categorized `Cc1occc1C(=O)Nc1ccc(C(=O)N2CCC(F)(F)/C(=C\C(=O)N3CCC(N4CCCCC4)CC3)c3ccccc32)cc1` .
(A) inactive

(Q) Please indicate how the test categorized `CCN(Cc1cccc(S(=O)(=O)O)c1)c1ccc(C(=C2C=CC(=[N+](CC)Cc3cccc(S(=O)(=O)O)c3)C=C2)c2ccccc2S(=O)(=O)[O-])cc1` .
(A) inactive

(Q) Please indicate how the test categorized `CCO[Si](CCCNC(N)=O)(OCC)OCC` .
(A) inactive

###

Protocol description: Tanguay_ZF_120hpf_ActivityScore_legacy: (Legacy) Oregon State University Tanguay Lab 120 Hour Post-fertilization zebrafish Assay Score for Activity (AID 2283742)
Calls of active or inactive are those of the source. How the source made its calls: active means hit-call score of the fitted dose curve at least 0.9, where 1 is the maximum; inconclusive means response in the unintended direction; inactive means score below 0.9.
Choose the fitting class; nothing outside 1.0 = active, 0.0 = inactive is accepted.

(Q) Please indicate how the test categorized `NC(=O)c1nc(-c2cccc(-c3cc(F)ccc3OCC(F)(F)C(F)(F)F)c2)n[nH]1` .
(A) 1.0

Continuing:
(Q) Please indicate how the test categorized OC12N=C(c3ccccc3)SC1Cc1cc(Cl)ccc12 (stereo not given) .
(A) 1.0

(Q) Please indicate how the test categorized `CCCCOC(=O)c1ccc(O)cc1` .
(A) 1.0

(Q) Please indicate how the test categorized `C[C@]12CC[C@@H]3c4ccc(O)cc4CC[C@H]3[C@@H]1CC[C@H]2O` .
(A) 0.0

###

Read-out: Monokine induced gamma interferon (MIG), CXCL9 (gene 4283)
Protocol description: BSK_SAg_MIG: BioMAP Diversity Plus: SAg Assay for Monokine induced gamma interferon (MIG) Biomarker Activity (AID 2283092)
Stated conditions: primary human HUVEC with PBMC; actives raise or lower the signal
Active and inactive are the calls of the source. The calls were made as follows: active = hit-call score of the fitted dose curve at least 0.9, where 1 is the maximum; inactive = score below 0.9.
Choose the fitting class; nothing outside active, inactive is accepted.

(Q) Please indicate how the test categorized `CCCCCCCCCCCO` .
(A) inactive

(Q) Please indicate how the test categorized `CCCCCCCCOc1ccc(C(=O)c2ccccc2)c(O)c1` .
(A) inactive

(Q) Please indicate how the test categorized `Clc1cc(Cl)c2c(c1)N=C1CCCCCN1C2` .
(A) inactive

Continuing:
(Q) Please indicate how the test categorized `Oc1ccc2ccccc2c1` .
(A) inactive

(Q) Please indicate how the test categorized `Cc1ccc2oc(CN(Cc3ccccc3)C(=O)Nc3c(F)cc(F)cc3F)c(-c3ccc(Cl)cc3)c2c1` .
(A) inactive

(Q) Please indicate how the test categorized `NC(=O)c1nc(-c2cccc(-c3cc(F)ccc3OCC(F)(F)C(F)(F)F)c2)n[nH]1` .
(A) active

(Q) Please indicate how the test categorized `C[C@]12CC[C@@H]3c4ccc(O)cc4CC[C@H]3[C@@H]1CCC2=O` .
(A) inactive

(Q) Please indicate how the test categorized `CCCOC(=O)c1cc(O)c(O)c(O)c1` .
(A) inactive

(Q) Please indicate how the test categorized `CCCCCCCCCCCCO` .
(A) active

###

Protocol description: Tanguay_ZF_120hpf_PFIN_legacy: (Legacy) Oregon State University Tanguay Lab 120 Hour Post-fertilization zebrafish Assay for Pectoral Fin Malformation (AID 2283648);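 further: each larva judged yes or no for fin defect by brightfield with dead larvae skipped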
Experimental: Tanguay_ZF_120hpf_legacy is a whole embryo, multiplexed endpoint assay using zebrafish larvae exposed for 120 hours post fertilization on a 96-well plate.Tanguay_ZF_120hpf_PFIN_legacy is one of one assay component(s) measured or calculated from the Tanguay_ZF_120hpf_legacy assay. […] This assay endpoint, Tanguay_ZF_120hpf_PFIN_legacy, was analyzed in the positive analysis fitting direction relative to DMSO as the negative control and baseline of activity. […]
Results filed as inconclusive are left out. The source made the active and inactive calls. The calls were made as follows: active = hit-call score of the fitted dose curve at least 0.9, where 1 is the maximum; inconclusive = response in the unintended direction; inactive = score below 0.9.
Choose the fitting class; nothing outside 1 for active, 0 for inactive is accepted.

// below: answered compounds
(Q) Please indicate how the test categorized `CN1C(=O)CC[C@H]1c1cccnc1` .
(A) 0

(Q) Please indicate how the test categorized `Clc1ccccc1C(c1ccccc1)(c1ccccc1)n1ccnc1` .
(A) 0

Continuing:
(Q) Please indicate how the test categorized `OCCO` .
(A) 0

(Q) Please indicate how the test categorized `CCCCOC(=O)CC(CC(=O)OCCCC)(OC(C)=O)C(=O)OCCCC` .
(A) 0

(Q) Please indicate how the test categorized `CCCCOC(=O)c1ccc(O)cc1` .
(A) 1

(Q) Please indicate how the test categorized `Oc1ccc2ccccc2c1` .
(A) 0

(Q) Please indicate how the test categorized `c1ccc2n[nH]nc2c1` .
(A) 0

###

Read-out: TIMP1, TIMP1 (gene 7076)
Protocol description: LTEA_HepaRG_TIMP1: Life Technologies and Expression Analysis (LTEA) Assay for TIMP1 using HepaRG (AID 2283534)
Stated conditions: mRNA level, 48 h; actives raise or lower the signal
Active and inactive are the calls of the source. Rule for the calls: active = hit-call score of the fitted dose curve at least 0.9, where 1 is the maximum; inactive = score below 0.9.
Measure: AC50

Look over these answered cases.
(Q) In one line, give reported AC50 of the entry `Cc1occc1C(=O)Nc1ccc(C(=O)N2CCC(F)(F)/C(=C\C(=O)N3CCC(N4CCCCC4)CC3)c3ccccc32)cc1` .
(A) inactive

(Q) In one line, give reported AC50 of the entry CN1C(=O)N(c2ccccc2Br)Cc2cnc(Nc3ccc4c(c3)OCC(CO)O4)nc21 (stereo not given) .
(A) 11.9 µM (active)

(Q) In one line, give reported AC50 of the entry `CN(C[C@@H](CC[N+]12CCC(C3CCCCC3)(CC1)CC2)c1ccc(Cl)c(Cl)c1)C(=O)c1cc(C(F)(F)F)cc(C(F)(F)F)c1` .
(A) 68.7 µM (active)

(Q) In one line, give reported AC50 of the entry `CCCCCCCCCCCO` .
(A) inactive

Then this compound:
(Q) In one line, give reported AC50 of the entry CC(O)CC(C)(C)O (stereo not given) .
(A) inactive

###

Protocol description: CEETOX_H295R_PROG: CeeTox H295R High-throughput Steroidogenesis Assay for Progesterone (PROG) (AID 2283442)
Stated conditions: actives raise or lower the signal
Calls of active or inactive are those of the source. The calls were made as follows: active = hit-call score of the fitted dose curve at least 0.9, where 1 is the maximum; inactive = score below 0.9.
Choose the fitting class; nothing outside active, inactive is accepted.

// below: answered molecules
(Q) Please indicate how the test categorized `COc1cccc([C@H](O)C2CCN(CCc3ccc(F)cc3)CC2)c1OC` .
(A) active

(Q) Please indicate how the test categorized `CCCCCCCCOC(=O)c1cc(O)c(O)c(O)c1` .
(A) active

(Q) Please indicate how the test categorized `O=c1c(-c2ccc(O)cc2)coc2cc(O)cc(O)c12` .
(A) active

(Q) Please indicate how the test categorized `CCCCCCCCN(C)CCCCCCCC` .
(A) inactive

(Q) Please indicate how the test categorized `CC(C)(c1cc(Br)c(O)c(Br)c1)c1cc(Br)c(O)c(Br)c1` .
(A) active

(Q) Please indicate how the test categorized `O=C1CCC(C2CCCCC2)CC1` .
(A) inactive

Now consider the entry below.
(Q) Please indicate how the test categorized `O=C(Nc1ccc(Cl)cc1)Nc1ccc(Cl)c(Cl)c1` .
(A) active
